Test: qHTS for Inhibitors of the Functional Ribonucleoprotein Complex (vRNP) of Lassa (LASV) Arenavirus: LASV Primary Screen - GLuc reporter signal (AID 1347082); also: nearly all actives have a fitted effect of over 60% in size
Details: LASV minigenome vRNP, Gaussia luciferase reporter; series mostly up to 57.5 µM
Results filed as inconclusive are left out. Calls of active or inactive are those of the source. Calls follow the shape of the full dose curve; tested in HEK293 reporter line.
Outcomes: active, inactive

- smiles_data: "CC(C)c1ccccc1Cc1cc(C(=O)Nc2ccc(S(=O)(=O)c3ccccc3C(C)(C)C)cc2)c(O)c(O)c1O"
  answer_label: "active"
- smiles_data: "Nc1ccccc1NC(=O)c1ccc(CNc2nccc(-c3cccnc3)n2)cc1"
  answer_label: "inactive"
- smiles_data: "Nc1ccc(-c2ccc3ncc4ccc(=O)n(-c5cccc(C(F)(F)F)c5)c4c3c2)cn1"
  answer_label: "active"
- smiles_data: "O=[N+]([O-])c1cc([N+](=O)[O-])c2ccccc2c1"
  answer_label: "inactive"
- smiles_data: "COc1nc(-c2ccc3c(c2)OCO3)n(-c2ccc(NC(=O)CSc3ccccc3)cc2)n1"
  answer_label: "inactive"

---

Assay: qHTS for Inhibitors of the Functional Ribonucleoprotein Complex (vRNP) of Lassa (LASV) Arenavirus: Viability assay - alamar blue signal for LASV Primary Screen (AID 1347083); also: nearly all actives have a fitted effect of over 80% in size; also: potency is read from the fitted curve at half-maximal effect
Details: cell viability, alamar blue fluorescence (LASV minigenome counter-screen); series mostly up to 57.5 µM
Records with an inconclusive call do not appear. Activity calls are given as the source filed them. The call rests on the fitted dose curve; tested in HEK293 reporter line.
parameter_measured: Potency

- molecule: "Cn1cc(-c2ccc3nnc(C(F)(F)c4ccc5ncccc5c4)n3n2)cn1"
  result: "inactive"
- molecule: "CCOC(=O)Nc1ccc(NCc2ccc(F)cc2)cc1N"
  result: "5.44 µM (active)"
- molecule: "Nc1ccc(Cl)cc1N"
  result: "inactive"
- molecule: "[O-][n+]1cccc(/C(Cl)=N/OC[C@@H](O)CN2CCCCC2)c1"
  result: "inactive"
- molecule: "ClC1=C(Cl)[C@]2(Cl)[C@@H]3[C@@H]4C[C@@H]([C@H]5O[C@@H]45)[C@@H]3[C@@]1(Cl)C2(Cl)Cl"
  result: "inactive"
- molecule: "O=C(O)c1ccccn1"
  result: "inactive"
- molecule: "O=C(C=Cc1cccc(S(=O)(=O)Nc2ccccc2)c1)NO"
  result: "25 µM (active)"
- molecule: "Clc1cnc(Oc2ccc(Oc3ncc(Cl)cc3Cl)cc2)c(Cl)c1"
  result: "inactive"
- molecule: "CC(=O)c1c(C)c2cnc(Nc3ccc(N4CCNCC4)cn3)nc2n(C2CCCC2)c1=O"
  result: "30.6 µM (active)"
- molecule: "O=C1CCCN1CC#CCN1CCCC1"
  result: "inactive"
- molecule: "N#CCNC(=O)c1ccc(-c2ccnc(Nc3ccc(N4CCOCC4)cc3)n2)cc1"
  result: "21.7 µM (active)"
- molecule: "OCc1c[nH]c2ccccc12"
  result: "inactive"
- molecule: "CC(=O)OCC1=C(C(=O)O)N2C(=O)[C@@H](N)[C@@H]2SC1"
  result: "inactive"
- molecule: "Nc1nc2ccc([N+](=O)[O-])cc2s1"
  result: "inactive"
- molecule: "CCCCCCCCc1ccc(O)cc1"
  result: "inactive"
- molecule: "O=C1C(I)=CC(=C(c2cc(I)c(O)c(I)c2)c2ccccc2C(=O)O)C=C1I"
  result: "inactive"
- molecule: "C[C@]12CC[C@H](O)CC1=CC[C@H]1[C@H]3CCC(=O)[C@@]3(C)CC[C@@H]12"
  result: "inactive"
- molecule: "Cc1c(N)nc([C@H](CC(N)=O)NC[C@@H](N)C(N)=O)nc1C(=O)N[C@H](C(=O)N[C@@H](C)[C@H](O)[C@@H](C)C(=O)N[C@@H](C(=O)NCCc1nc(-c2nc(C(=O)NCCC[S+](C)C)cs2)cs1)[C@@H](C)O)C(O[C@H]1O[C@H](CO)[C@H](O)[C@@H](O)[C@@H]1O[C@H]1O[C@H](CO)[C@@H](O)[C@H](OC(N)=O)[C@H]1O)c1cnc[nH]1 (stereo partly specified)"
  result: "7.69 µM (active)"
- molecule: "CCOC(=O)C(C)Oc1cccc2c(=O)n(CC(=O)Nc3ccc4c(c3)OCCO4)ccc12 (stereo unspecified)"
  result: "inactive"
- molecule: "c1cc(-c2cnn3cc(-c4ccc(OCCN5CCCCC5)cc4)cnc23)ccn1"
  result: "17.2 µM (active)"
- molecule: "CN1CC[C@@H](c2c(O)cc(O)c3c(=O)cc(-c4ccccc4Cl)oc23)[C@@H](O)C1"
  result: "0.137 µM (active)"
- molecule: "O=C(Nc1ccccc1-c1cn2c(CN3CCNCC3)csc2n1)c1cnc2ccccc2n1"
  result: "inactive"
- molecule: "COc1ccc2c(c1)CC[C@H]1[C@@H]2CC[C@]2(C)[C@@H](NCCCCCCN3C(=O)C=CC3=O)CC[C@H]12"
  result: "inactive"
- molecule: "CN1C(=O)C(Cc2c[nH]c3ccccc23)NC1=S (stereo unspecified)"
  result: "inactive"
- molecule: "O=C(O)c1ccccc1O"
  result: "inactive"
- molecule: "CC(=O)N(C)c1cccc(-c2ccnc3c(C(=O)c4cccs4)cnn23)c1"
  result: "inactive"
- molecule: "COc1cc2c(cc1OC)[C@@H]1C(=O)c3ccc4c(c3O[C@@H]1CO2)C=CC(C)(C)O4"
  result: "1.93 µM (active)"
- molecule: "COc1ncnc(NS(=O)(=O)c2ccc(N)cc2)c1OC"
  result: "inactive"
- molecule: "O=C(O)COc1ccccc1"
  result: "inactive"
- molecule: "COc1cc([C@@H]2c3cc4c(cc3[C@@H](O)C3COC(=O)C32)OCO4)cc(OC)c1O (stereo partly specified)"
  result: "0.0863 µM (active)"
- molecule: "CCCCCCCCCCCCCC(=O)N[C@H](CO)[C@H](O)c1ccc([N+](=O)[O-])cc1"
  result: "inactive"
- molecule: "Nc1nc(Nc2ccc(S(N)(=O)=O)cc2)nn1C(=O)c1c(F)cccc1F"
  result: "24.3 µM (active)"
- molecule: "CCCCC(CC)COC(=O)/C=C/c1ccc(OC)cc1 (stereo unspecified)"
  result: "inactive"
- molecule: "COc1cc2c(cc1OC)C(=O)CC2"
  result: "inactive"
- molecule: "O=C(O)c1ccc2cc(-c3ccc(O)c(C45CC6CC(CC(C6)C4)C5)c3)ccc2c1"
  result: "inactive"
- molecule: "CCCn1c(=O)c2[nH]c(C34CC5CC3C[C@@H](C5)C4)nc2n(CCC)c1=O"
  result: "inactive"

---

Assay: qHTS for Inhibitors of the Functional Ribonucleoprotein Complex (vRNP) of Lassa (LASV) Arenavirus: Viability assay - alamar blue signal for LASV Primary Screen (AID 1347083); also: nearly all actives have a fitted effect of over 80% in size
Conditions: cell viability, alamar blue fluorescence (LASV minigenome counter-screen); series mostly up to 57.5 µM
Inconclusive results are not listed. Active and inactive are the calls of the source. The call rests on the fitted dose curve; tested in HEK293 reporter line.
Outcomes: active, inactive

- compound: "CNCCc1ccc(O)c(O)c1"
  answer_label: "inactive"
- compound: "CC(C)(C)c1cnc(CSc2cnc(NC(=O)C3CCNCC3)s2)o1"
  answer_label: "active"
- compound: "OCCC#Cc1nc(-c2ccc(F)cc2)c(-c2ccncc2)n1CCCc1ccccc1"
  answer_label: "inactive"
- compound: "Clc1ccccc1C(c1ccccc1)(c1ccccc1)n1cccn1"
  answer_label: "inactive"
- compound: "CCN(CC)CCCCNc1ncc2cc(-c3cc(OC)cc(OC)c3)c(NC(=O)NC(C)(C)C)nc2n1"
  answer_label: "active"
- compound: "CCCCCCCC(=O)OCC(O)CO (stereo not given)"
  answer_label: "inactive"
- compound: "C[C@]12C[C@H](O)[C@H]3[C@@H](CCC4=CC(=O)CC[C@@]43C)[C@@H]1CC[C@@H]2C(=O)CO"
  answer_label: "inactive"
- compound: "O=C(Oc1ccccc1)c1cccc(C(=O)Oc2ccccc2)c1"
  answer_label: "inactive"
- compound: "CC(C)(C)C(O)C(Oc1ccc(Cl)cc1)n1cncn1 (stereo not given)"
  answer_label: "inactive"
- compound: "CC1=C(CO)C(=O)O[C@@H]([C@@H](C)[C@H]2CC[C@H]3[C@@H]4C[C@H]5O[C@]56[C@@H](O)C=CC(=O)[C@]6(C)[C@@H]4CC[C@]23C)C1"
  answer_label: "active"
- compound: "Cc1[nH]nc2ccc(-c3cncc(OC[C@@H](N)Cc4c[nH]c5ccccc45)c3)cc12"
  answer_label: "active"
- compound: "NCCc1c[nH]c2ccc(O)cc12"
  answer_label: "inactive"
- compound: "c1ccc2c(CN3CCNCC3)cccc2c1"
  answer_label: "inactive"
- compound: "CCOC(=O)c1c(C)n(C)c2ccc(O)cc12"
  answer_label: "inactive"
- compound: "S=C(NCc1ccc2c(c1)OCO2)N1CCN(c2ncnc3c2oc2ccccc23)CC1"
  answer_label: "inactive"
- compound: "O=S(=O)(F)Cc1ccccc1"
  answer_label: "active"
- compound: "O=[N+]([O-])c1ccc([As](=O)(O)O)cc1"
  answer_label: "inactive"
- compound: "C[C@]12CCC(=O)C(O)=C1CC[C@@H]1[C@H]3CCC(=O)[C@@]3(C)CC[C@@H]12"
  answer_label: "inactive"
- compound: "CC(C)NCC(O)c1ccc([N+](=O)[O-])cc1 (stereo not given)"
  answer_label: "inactive"
- compound: "O=S(=O)(O)C(F)(F)C(F)(F)C(F)(F)C(F)(F)F"
  answer_label: "inactive"
- compound: "c1ccc(C2(c3ccccc3)CC2C2=NCCN2)cc1 (stereo not given)"
  answer_label: "inactive"
- compound: "CC(C)[C@H](CO)Nc1nc(Nc2ccc(C(=O)O)c(Cl)c2)c2ncn(C(C)C)c2n1"
  answer_label: "active"
- compound: "CCC(=O)N[C@H]1CC[C@H](C(=O)N(C)c2ccc(-c3nc4ccccc4o3)cc2)C1"
  answer_label: "active"
- compound: "CC(C)(C)OC(=O)Nc1ccc(-c2cc(C(=O)NCCCCCCC(=O)NO)no2)cc1"
  answer_label: "active"
- compound: "C/C(=C1\\CCOC(=O)S1)N(C=O)Cc1cnc(C)nc1N"
  answer_label: "inactive"
- compound: "COc1nc(-c2ccc3c(c2)OCO3)n(-c2ccc(NC(=O)CSc3ccccc3)cc2)n1"
  answer_label: "inactive"
- compound: "CCn1c(-c2nonc2N)nc2c(C#CC(C)(C)O)ncc(OC[C@H]3CCCNC3)c21"
  answer_label: "active"
- compound: "CC(=O)Oc1ccccc1C(=O)O"
  answer_label: "inactive"
- compound: "CN1[C@H]2CC(O)C[C@H]1[C@H]1O[C@H]12 (stereo not given in full)"
  answer_label: "active"
- compound: "CC(C)(c1ccc(O)cc1)c1ccc(O)cc1"
  answer_label: "inactive"
- compound: "CCCCc1nc2cc(C=CC(=O)NO)ccc2n1CCN(CC)CC"
  answer_label: "active"
- compound: "COc1c(C)cnc(Cn2cnc3c(Cl)nc(N)nc32)c1C"
  answer_label: "active"
- compound: "O=C(O)[C@H](Cc1c[nH]c2ccccc12)N1C(=O)c2ccccc2C1=O"
  answer_label: "inactive"
- compound: "C=C1C(=CC=C2CCC[C@]3(C)[C@@H]([C@H](C)C=C[C@H](C)C(C)C)CC[C@@H]23)C[C@@H](O)C[C@@H]1O"
  answer_label: "active"
- compound: "C=CC(=O)Nc1cccc(Oc2nc(Nc3ccc(N4CCN(C)CC4)cc3OC)ncc2Cl)c1"
  answer_label: "active"

Values compiled from PubChem BioAssay (NCATS).
